Hey, just so you know, these numbers are from patent US12661410B2.

target: RET(KD: 658-1114 G810R) (Homo sapiens, UniProt P07949, G810R); construct: 658-1114; expressed in transfected cells; host or cells: 293T.165 (293T cells, generated in-house); experiment: HiBiT-Degradation, RET G810R degradation assay (Nano-Glo HiBiT Lytic), 293T.165 cells; assay type: cell-based; settings: 6.0 hours, % remaining protein, read-out: 293T.165 RET(KD: 658-1114 G810R) 6.0 hours (Emax)
Sequence (P07949 658-1114 G810R): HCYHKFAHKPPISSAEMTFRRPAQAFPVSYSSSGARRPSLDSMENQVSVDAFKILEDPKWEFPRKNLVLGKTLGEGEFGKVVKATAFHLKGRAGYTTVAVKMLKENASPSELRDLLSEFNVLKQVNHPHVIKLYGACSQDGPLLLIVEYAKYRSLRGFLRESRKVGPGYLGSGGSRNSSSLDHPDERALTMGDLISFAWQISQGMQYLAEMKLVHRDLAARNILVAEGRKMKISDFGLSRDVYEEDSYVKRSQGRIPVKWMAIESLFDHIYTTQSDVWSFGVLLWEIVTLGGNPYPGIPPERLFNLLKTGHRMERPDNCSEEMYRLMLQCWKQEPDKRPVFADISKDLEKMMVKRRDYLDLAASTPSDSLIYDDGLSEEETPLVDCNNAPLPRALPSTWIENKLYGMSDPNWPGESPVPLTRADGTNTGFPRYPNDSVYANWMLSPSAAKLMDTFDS
quantity: Emax

Some solved entries appear below for comparison.
COc1cc(N2CCN(C3CCC(n4cc(-c5cn6ncc(C#N)c6c(-c6ccc(N7CC8COCC(C7)N8Cc7ccccn7)nc6)n5)cn4)CC3)CC2)c(F)cc1NC1CCC(=O)NC1=O (stereo not drawn) :: < 30%
CCC1(C(=O)NC2CCC2)CCN(c2ccc(-c3nc(-c4cnn([C@H]5C[C@](F)(CN6CCN(c7ccc(N[C@H]8CCC(=O)NC8=O)cc7F)CC6)C5)c4)cn4ncc(C#N)c34)cn2)CC1 :: < 50%

Now let's try a different one.
Emax on RET(KD: 658-1114 G810R) (Homo sapiens, UniProt P07949, G810R) for CC(C)NC(=O)C1(C)CCN(c2ccc(-c3cc(-c4cnn(C5CCN(C(=O)CN6CCC(c7ccc(NC8CCC(=O)NC8=O)cc7F)CC6)CC5)c4)cn4ncc(C#N)c34)cn2)CC1 (stereo not drawn) is < 50%

====

biological target: RET(KD: 658-1114 G810R) (Homo sapiens, UniProt P07949, G810R); construct: 658-1114; expressed in transfected cells; host or cells: 293T.165 (293T cells, generated in-house); test: HiBiT-Degradation, RET G810R degradation assay (Nano-Glo HiBiT Lytic), 293T.165 cells; assay type: cell-based; settings: 6.0 hours, % remaining protein, read-out: 293T.165 RET(KD: 658-1114 G810R) 6.0 hours (Emax)
Catalogue of Emax readings, one per entry.

Some solved entries appear below for comparison.
CCC1(C(=O)NC(C)C)CCN(c2ccc(-c3nc(-c4cnn(C5CCN(C(=O)CC6(O)CC7(CN(c8ccc(NC9CCC(=O)NC9=O)cc8F)C7)C6)CC5)c4)cn4ncc(C#N)c34)cn2)CC1 (centres unmarked) :: < 50%
COc1cc(N2CCN([C@H]3CC[C@H](n4cc(-c5cn6ncc(C#N)c6c(-c6ccc(N7CC8COCC(C7)N8C(=O)OC(C)(C)C)nc6)n5)cn4)CC3)CC2)c(F)cc1NC1CCC(=O)NC1=O (relative stereo) :: < 30%
CCC1(C(=O)NC(C)C)CCN(c2ccc(-c3nc(-c4cnn(CC5CCN(C(=O)CC6(O)CCN(c7ccc(NC8CCC(=O)NC8=O)cc7F)CC6)CC5)c4)cn4ncc(C#N)c34)cn2)CC1 (centres unmarked) :: < 30%
N#Cc1cnn2cc(-c3cnn(C4CCN(C(=O)CC5(O)CCN(c6ccc(NC7CCC(=O)NC7=O)cc6F)CC5)CC4)c3)cc(-c3ccc(N4CCC(c5ccc(O)cc5)CC4)nc3)c12 (centres unmarked) :: < 30%

Now let's try a different one.
// sample CCC1(C(=O)NC(C)C)CCN(c2ccc(-c3nc(-c4cnn(C5CCN(C(=O)CC6(O)CCN(c7ccc(NC8CCC(=O)NC8=O)cc7F)CC6)CC5)c4)cn4ncc(C#N)c34)cc2)CC1 (centres unmarked) , its Emax was < 30%
